# system: p53-MDM2 interaction (GST-MDM2 protein aa 23-117 / biotinylated p53 wt peptide) (Homo sapiens (Human), UniProt Q00987)
# procedure text: MDM2-p53 Inhibition AlphaScreen
# run conditions: 20 nM GST-MDM2 (aa 23-117), 20 nM biotinylated p53 wt peptide
Examples of molecules with documented pIC50 follow.
Please report pIC50 as the negative decimal logarithm of the molar concentration, giving only the number.

{"molecule": "Cc1cc(N2CC[C@H]3[C@@H](C2=O)[C@H](c2cccc(Cl)c2F)[C@]2(C(=O)Nc4cc(Cl)ccc42)N3CC2CC2)cc(C)c1C(=O)O", "result value": 7.34}
{"molecule": "CC1CC1CN1[C@H]2CCN(c3ccc(S(C)(=O)=O)cc3)C(=O)[C@H]2[C@H](c2cccc(Cl)c2F)[C@]12C(=O)Nc1cc(Cl)ccc12 (stereo partly drawn)", "result value": 6.92}
{"molecule": "O=C1NCC[C@H]2[C@@H]1[C@H](c1cccc(Cl)c1F)[C@]1(C(=O)Nc3cc(I)ccc31)N2CC1CC1", "result value": 6.49}
{"molecule": "COC(=O)c1ccc(N2CC[C@H]3[C@@H](C2=O)[C@H](c2cccc(Cl)c2F)[C@]2(C(=O)Nc4cc(Cl)ccc42)N3CC2CC2)cc1", "result value": 6.99}
{"molecule": "COc1cc(N2C[C@H]3[C@@H](C2=O)[C@H](c2cccc(Cl)c2F)[C@]2(C(=O)Nc4cc(Cl)ccc42)N3CC2CC2)ccc1C(=O)O", "result value": 8.40}
{"molecule": "CON(C)C(=O)c1ccc(N2CC[C@H]3[C@@H](C2=O)[C@H](c2cccc(Cl)c2F)[C@]2(C(=O)Nc4cc(Cl)ccc42)N3CC2CC2)cc1", "result value": 7.48}
{"molecule": "COc1cc(C(=O)O)ccc1N1CC[C@H]2[C@@H](C1=O)[C@H](c1cccc(Cl)c1F)[C@]1(C(=O)Nc3cc(Cl)ccc31)N2CC1CCC1", "result value": 6.87}
{"molecule": "Nc1ccc(N2CC[C@H]3[C@@H](C2=O)[C@H](c2cccc(Cl)c2F)[C@]2(C(=O)Nc4cc(Cl)ccc42)N3CC2CC2)cc1", "result value": 6.79}

Incoming: pIC50 lookup needed for CS(=O)(=O)Nc1ccc(N2C[C@H]3[C@@H](C2=O)[C@H](c2cccc(Cl)c2F)[C@]2(C(=O)Nc4cc(Cl)ccc42)N3CC2CC2)cc1F , thanks.
Outgoing: 7.43

Incoming: Same question for COC(=O)c1ccc(N2C[C@H]3[C@@H](C2=O)[C@H](c2cccc(Cl)c2F)[C@]2(C(=O)Nc4cc(Cl)ccc42)N3CC2CC2)cc1 please.
Outgoing: 7.42

Incoming: Further, for NC(=O)c1ccc(N2C[C@H]3[C@@H](C2=O)[C@H](c2cccc(Cl)c2F)[C@]2(C(=O)Nc4cc(Cl)ccc42)N3CC2CC2)cc1 ?
Outgoing: 8.15

Incoming: Quick one: CNC(=O)c1ccc(N2C[C@H]3[C@@H](C2=O)[C@H](c2cccc(Cl)c2F)[C@]2(C(=O)Nc4cc(Cl)ccc42)N3CC2CC2)cc1
Outgoing: 8.10
